Tested on: HCT-15 colon
Test: NCI-60 one-dose screen, 48 h (100 = growth as untreated, 0 = no growth, -100 = all killed)
Details: 10 µM unless noted
This is part of a sample that, as a whole, favours compounds with a hit. Of some 83,000 tested, about 20% had one in any assay.
Class (required): determined from growth; valid ranges are interval 1 = under 10%, interval 2 = from 10% up to 50%, interval 3 = 50% and over

COMPOUND	ASSIGNED CLASS
CCN(CC)CCNc1ccc(C)c2sc3cc(C)ccc3c(=O)c12	interval 2
CC(C)CCC[C@@H](C)[C@H]1CCC2C3=CCC4C(=O)C=CC(=O)C4C3CC[C@@]21C (some centres undefined)	interval 1
COc1ccc(CN2C(=O)/C(=C\c3cc(OC)c(OC)c(OC)c3)c3ccccc32)cc1	interval 1
COc1ccc(C2=NC(=O)NC2c2ccc(OC)cc2)cc1 (centres undefined)	interval 2
Cc1nc(Nc2ccc(NC(=S)Nc3ccccc3)cc2)nc2nc(Nc3cccc(Cl)c3)[nH]c(=O)c12	interval 3
Cc1cc(NS(=O)(=O)c2ccccc2)c(OS(=O)(=O)c2ccccc2)cc1C	interval 3
N#C/C(=C\c1ccc2c(c1)OCO2)n1nnc2ccccc21	interval 1
COc1cc2c(cc1OC)-c1ccc3cc4c(cc3c1N(CCCN1CCCCC1)C2)OCO4	interval 2
Cc1cc(Cc2cc(C)cc(C(C)(C)C)c2O)c(O)c(C(C)(C)C)c1	interval 2
O=C1Nc2ccccc2SC1c1ccccc1Cl (centres undefined)	interval 3
COc1cccc(/C=C2\COc3ccc(O)cc3C2=O)c1OC	interval 2
O=C1CC(c2ccc3c(c2)OCO3)Nc2cc3c(cc21)OCO3 (centres undefined)	interval 2
Clc1ccc2c(NCCCN3CCN(c4nc(-n5ccnc5)nc5ccccc45)CC3)ccnc2c1	interval 1
C=C1C(=O)O[C@H]2[C@H]1CC/C(C(=O)NCCCCCCCCNC(=O)/C1=C/CC[C@@]3(C)O[C@H]3[C@H]3OC(=O)C(=C)[C@@H]3CC1)=C\CC[C@@]1(C)O[C@@H]21	interval 3
Nc1nc(N)c(-c2ccc(Cl)cc2)c(/C=C/c2ccc([N+](=O)[O-])cc2)n1	interval 3
C=C1c2c(C)nn(-c3ccc(O)cc3)c2N(C)C23C[C@@H]1C1(C)c4c(C)nn(-c5ccc(O)cc5)c4N(C)C(C)(C[C@H]12)C3 (some centres undefined)	interval 2
Cc1ccc(NC(=O)C(Cl)Cl)cc1	interval 3
O=C(/C=C/C12c3ccccc3C(c3ccccc31)C1C(=O)N(c3ccc(Cl)cc3)C(=O)C12)c1ccccn1 (centres undefined)	interval 1
Nc1ccc(-c2cc3c(Nc4ccc(OCc5cccc(F)c5)c(Cl)c4)ncnc3s2)cc1	interval 2

----------
System: NCI-H460 lung
Test: NCI-60 one-dose screen, 48 h (100 = growth as untreated, 0 = no growth, -100 = all killed)
Settings: 10 µM unless noted
About 83,000 compounds went through this panel and 20% of them were active in at least one assay; those are over-represented in the sample as a whole. Activity calls are given as the source filed them. Rule for the calls: active = growth percent below 10; inactive = the rest.
Recorded growth values for a group of compounds are listed next.

COMPOUND	growth
CN(C)CCn1cc(-c2ccc3c(Nc4ccc(CC(=O)Nc5cccc(F)c5)cc4)ncnc3c2)cn1	-74.1% [30 µM] (active)
CCCCOc1nc2ccc(Cl)cc2cc1/C=C/C(=O)/C=C1/CC(c2cc3cc(Cl)ccc3nc2OCCCC)Nc2ccccc2N1 (stereo not drawn)	85% (inactive)
Cc1ccc(NSc2ccccc2[N+](=O)[O-])cc1	14.7% (inactive)
O=c1ccn(C2OC(F)(CO)C(O)C2F)c(=O)[nH]1 (stereo not drawn)	107% (inactive)
NC(=Nc1ccc(N)cc1)C(N)=Nc1ccc(N)cc1	106% (inactive)
C[C@@H]1CC[C@@H]2[C@@H]1[C@H](OC(=O)c1ccc3ccccc3c1)[C@]1(C3CCCCC3)C[C@@H](OC(=O)CO)[C@@]2(C)O1	49.9% (inactive)
COc1cc(NC(=O)c2cc(O)c(CC=C(C)C)c(O)c2)cc2c1O[C@]1(C)CC[C@@H](O)C(C)(C)[C@H]1C2	27.2% (inactive)
O=C(Oc1ccc[nH]c1=O)c1cc([N+](=O)[O-])cc([N+](=O)[O-])c1	111% (inactive)
NS(=O)(=O)Oc1ccc(-c2sc3cc(O)ccc3c2C(=O)c2ccc(OCCN3CCCCC3)cc2)cc1	20.3% (inactive)
COC(=O)CCCNC(=O)C(=O)c1c(O)c(O)c(C(C)C)c2cc(C)c(-c3c(C)cc4c(C(C)C)c(O)c(O)c(C(=O)C(=O)NCCCC(=O)OC)c4c3O)c(O)c12	0.963% (active)
N#C/C(=C\c1ccc(Br)cc1)n1nnc2ccccc21	-23.2% (active)
COc1cc(C2CC(c3ccc(Nc4nc(Nc5ccc(F)cc5)nc(Nc5ccc(Cl)cc5)n4)cc3)=NN2C(C)=O)cc(OC)c1OC (stereo not drawn)	77.9% (inactive)
N#C/C(=C\c1ccc2c(c1)OCO2)n1nnc2ccccc21	0.341% (active)
O=C(c1ccccc1)c1ccc(Cl)c([N+](=O)[O-])c1	101% (inactive)
COc1ccc(C(=O)/C=C/C23c4ccccc4C(c4ccccc42)C2C(=O)NC(=O)C23)cc1 (stereo not drawn)	96.2% (inactive)
O=[N+]([O-])c1ccc2[nH]cc(-c3c4ccsc4cc4[nH]c5ccc([N+](=O)[O-])cc5c34)c2c1	4.39% (active)
O=C(Nc1ccccn1)[C@H](O)[C@@H](O)C(=O)N1CCOCC1	105% (inactive)
N#Cc1c(N)nc2c(nnn2-c2cccc(C(F)(F)F)c2)c1N	95.9% (inactive)

----------
Tested on: COLO 205 colon
Assay: NCI-60 one-dose screen, 48 h
Conditions: 10 µM unless noted
Compounds without any hit were thinned out: in the full panel of roughly 83,000, 20% have a hit. The source made the active and inactive calls. Rule for the calls: active = growth percent below 10; inactive = the rest.
Outcome codes: active, inactive

TEST SMILES	ASSIGNED CLASS
COc1ccc(-c2cc(-c3ccc(Nc4nc(Nc5ccccc5)nc(Nc5ccc(Cl)cc5)n4)cc3)nc(N)c2C#N)cc1	inactive
C=C1C(=O)O[C@H]2[C@H]1CC/C(COC(=O)/C=C\C(=O)NCc1ccc(Cn3c(=O)sn(CCCC)c3=O)cc1)=C\CC[C@@]1(C)O[C@@H]21	active
CCCCCCCCc1cc[n+](CC(=O)c2ccc(Br)cc2)cc1	active
COc1ccc(/C(C)=C(\c2ccc(Cl)cc2)c2ccc(OCCN3CCCCCC3)cc2)cc1F	inactive

----------
System: EKVX NSCLC
Assay: NCI-60 one-dose screen, 48 h
Conditions: 10 µM unless noted
The panel holds about 83,000 compounds, 20% with a hit somewhere; the sample as a whole holds those more often. Calls of active or inactive are those of the source. How the source made its calls: active means growth percent below 10; inactive means the rest.
Classes used: class 1 for active, class 0 for inactive

COMPOUND	TARGET OR TEST SYSTEM	ASSIGNED CLASS
Cl.Fc1c[c-]c(-c2ccccn2)c(F)c1.[Pt].c1ccc(P(c2ccccc2)C([PH+](c2ccccc2)c2ccccc2)[PH+](c2ccccc2)c2ccccc2)cc1	EKVX NSCLC	class 0
CN(C)c1ccc(/C=N/NC(=O)COc2cc(=O)n(C)c3ccccc23)cc1	EKVX NSCLC	class 0
NS(=O)(=O)Oc1ccc(-c2sc3cc(O)ccc3c2C(=O)c2ccc(OCCN3CCCCC3)cc2)cc1	EKVX NSCLC	class 0
Clc1ccc(-c2nnc(Cn3ccnc3)o2)cc1	EKVX NSCLC	class 0
CCCCCCCCN(CCCCCCCC)C(=N)c1ccnc2ccccc12	EKVX NSCLC	class 1
CCN(CC)c1ccc(Nc2ccc(CC(=O)c3ccccc3)cc2)cc1	EKVX NSCLC	class 0
Cc1nn(Cc2ccccc2)cc1C(=O)Nc1sc2c(c1C(N)=O)CCC(=O)C2	EKVX NSCLC	class 0
CCOc1ccc(S(=O)(=O)c2ccc(C)cc2)c2c1no[n+]2[O-]	EKVX NSCLC	class 0
Cn1cc(Nc2nccc(-c3ccc(N4CCCC4)c(C#N)c3)n2)cn1	EKVX NSCLC	class 0
CC(=O)C(C(C)=O)c1nc2sc3cc(Cl)ccc3n2c(=N)c1C#N	EKVX NSCLC	class 0
CCCCCCNc1cc(C)nc2ccc(OC)cc12	EKVX NSCLC	class 0
CC(C)c1ccc(NC(=O)Cc2ccc(Nc3ncnc4cc(-c5cnn(CCN(C)C)c5)ccc34)cc2)cc1	EKVX NSCLC	class 1
COC1(CC[C@@H](C)COC2OC(CO)C(O)C(O)C2O)O[C@H]2C[C@H]3[C@@H]4CC=C5C[C@@H](OC6OC(CO)C(OC7OC(C)C(O)C(O)C7O)C(O)C6OC6OC(C)C(O)C(O)C6O)CC[C@]5(C)[C@H]4CC[C@]3(C)[C@H]2[C@@H]1C (some centres undefined)	EKVX NSCLC	class 1
C=C(C)C1CCC(=C)C2CCC3(C)OC12/C=C(/COC(C)=O)CCC3O (centres undefined)	EKVX NSCLC	class 0
Cc1nc(Nc2ccccn2)sc1C(=O)/C=C/c1ccc(Br)cc1	EKVX NSCLC	class 0
CS(=O)(=O)c1ccc(N/N=C/c2c(-c3ccc(S(C)(=O)=O)cc3)[nH]c3ccc(F)cc23)cc1	EKVX NSCLC	class 0
O=C(NC1CCOCC1)c1ccc2c(c1)CN(c1ncc(Cc3cccc(-n4cccn4)c3)s1)CC2	EKVX NSCLC	class 0
O=C(NC(=S)Nc1ccc(-c2nc3ccccc3[nH]2)cc1)c1ccc2ccccc2c1	EKVX NSCLC	class 0
O=C(O)c1ccccc1C(=O)Nc1ccc(Cl)cc1	EKVX NSCLC	class 0
